- TARGET_SYSTEM: T1, hIL-4Rα on cells (human, UniProt P24394 26-825)
- T1 sequence: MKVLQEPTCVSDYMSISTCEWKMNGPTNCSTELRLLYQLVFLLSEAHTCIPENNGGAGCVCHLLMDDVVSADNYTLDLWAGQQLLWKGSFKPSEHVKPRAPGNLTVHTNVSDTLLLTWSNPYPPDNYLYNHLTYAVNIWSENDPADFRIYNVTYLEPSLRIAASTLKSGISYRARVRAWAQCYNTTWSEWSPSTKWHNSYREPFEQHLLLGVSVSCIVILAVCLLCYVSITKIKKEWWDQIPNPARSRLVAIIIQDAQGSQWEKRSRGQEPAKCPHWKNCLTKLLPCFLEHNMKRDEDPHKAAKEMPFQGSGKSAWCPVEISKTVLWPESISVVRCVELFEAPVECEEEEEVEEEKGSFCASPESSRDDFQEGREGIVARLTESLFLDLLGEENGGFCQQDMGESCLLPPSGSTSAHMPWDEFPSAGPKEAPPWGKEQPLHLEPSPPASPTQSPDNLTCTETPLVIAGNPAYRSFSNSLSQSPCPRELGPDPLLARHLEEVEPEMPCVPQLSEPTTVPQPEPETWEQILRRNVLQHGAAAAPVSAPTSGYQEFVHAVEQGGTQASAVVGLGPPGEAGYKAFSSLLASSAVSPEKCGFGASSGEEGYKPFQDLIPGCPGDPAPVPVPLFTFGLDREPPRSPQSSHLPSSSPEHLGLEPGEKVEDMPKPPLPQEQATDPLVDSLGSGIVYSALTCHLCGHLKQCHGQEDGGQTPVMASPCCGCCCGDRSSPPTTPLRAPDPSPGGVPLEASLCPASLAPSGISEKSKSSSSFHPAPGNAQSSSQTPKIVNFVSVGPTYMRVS
- PROCEDURE_TEXT: cell-based or functional assay
For each record, write down the corresponding Relative Inhibition of IL-13 induced TARC IC50.

// query Param item = Construct 1 (mAb410) (antibody, IgG4, V domains shown, VH/VL only) VH: EVQLVESGGGLEQPGGSLRLSCAGSGFTFRDFAMTWVRQAPGKGLEWVSSISGSGGNIYYADSVKGRFTISRDNSKNTLYLQMNSLRAEDTAVYYCAKDRLSKTIRPRYYGLDVWGQGTTVTVSS VL: DIVMTQSPLSLPVTPGEPASISCRSSQSVLYSIGYNYVDWYLQKSGQSPQLLIYLGSKRASGVPDRFSGSGSGTDFTLKISRVEAEDVGFYYCMQSLDTPYTFGQGTKLEIK ; retrieve measured Relative Inhibition of IL-13 induced TARC IC50.
// result 0.485 relative to dupilumab

// query Give the measured Relative Inhibition of IL-13 induced TARC IC50 of Construct 21 (mAb429) (antibody, IgG4, V domains shown, VH/VL only) VH: EVQLVESGGGLEQPGGSLRLSCAGSGFTFRTYAMTWVRQAPGKGLEWVSSISGSGGNIYYADSVKGRFTISRDNSKNTLYLQMNSLRAEDTAVYYCAKDRVSIYVRPRYYGLDVWGQGTTVTVSS VL: DIVMTQSPLSLPVTPGEPASISCTASQSLLYSIGYNYVDWYLQKSGQSPQLLIYLGSKRASGVPDRFSGSGSGTDFTLKISRVEAEDVGFYYCMQSLTSPYTFGQGTKLEIK .
// result 0.313 relative to dupilumab

// query Consider the binder shown here: Construct 8 (mAb417) (antibody, IgG4, V domains shown, VH/VL only) VH: EVQLVESGGGLEQPGGSLRLSCAGSGFTFRDFAMTWVRQAPGKGLEWVSSISGSGDNIYYADSVKGRFTISRDNSKNTLYLQMNSLRAEDTAVYYCAKDRLSVTVRPRYYGLDVWGQGTTVTVSS VL: DIVMTQSPLSLPVTPGEPASISCRSTQSLLYSIGKNYVDWYLQKSGQSPQLLIYLGNNRATGVPDRFSGSGSGTDFTLKISRVEAEDVGFYYCMQALTTPYAFGQGTKLEIK What is its recorded Relative Inhibition of IL-13 induced TARC IC50?
// result 1.05 relative to dupilumab
